# testSystem: ZmSIRK1 (ZmSIRK1^737-1045) (Zea mays)
# Construct: gene ZEAMMB73_Zm00001d047570; kinase domain Ser737-Ser1045 (full length 1045 aa; KD 762-1040), E. coli BL21(DE3)-R3-pRARE2, pNIC28a-Bsa4, 6xHis tag removed by TEV; forward primer encodes S737-V-V-F-T-A-E (translated); motifs 907DYS909, 933PPE935; model residues 744-972, 977-1000, 1009-1045
# protocol: isothermal titration calorimetry; co-crystal structure
# Type: binding
measureName: Kd (nM)
Response body: numeric value in nM, unit text excluded.

Look up Kd: Nc1ncnc2c1ncn2[C@@H]1O[C@H](COP(=O)(O)OP(=O)(O)NP(=O)(O)O)[C@@H](O)[C@H]1O [AMP-PNP]
2800

---

# testSystem: ZmSIRK1 (ZmSIRK1^737-1045) (Zea mays, UniProt K7VIQ3)
# Construct: gene ZEAMMB73_Zm00001d047570; kinase domain Ser737-Ser1045 (full length 1045 aa; KD 762-1040), E. coli BL21(DE3)-R3-pRARE2, pNIC28a-Bsa4, 6xHis tag removed by TEV; forward primer encodes S737-V-V-F-T-A-E (translated); motifs 907DYS909, 933PPE935; model residues 744-972, 977-1000, 1009-1045
# Sequence (K7VIQ3 entry or part of it): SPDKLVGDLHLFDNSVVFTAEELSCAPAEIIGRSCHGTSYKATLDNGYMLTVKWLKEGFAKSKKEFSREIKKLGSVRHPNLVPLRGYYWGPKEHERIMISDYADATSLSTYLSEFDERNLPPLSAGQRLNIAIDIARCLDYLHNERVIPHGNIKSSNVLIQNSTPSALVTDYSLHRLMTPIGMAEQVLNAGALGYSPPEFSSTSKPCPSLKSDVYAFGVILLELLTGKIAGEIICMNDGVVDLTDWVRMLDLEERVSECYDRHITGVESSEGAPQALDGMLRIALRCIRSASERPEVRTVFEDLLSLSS
# protocol: isothermal titration calorimetry
# Assay type: binding
measureName: pKd
The read-out pKd is expressed as -log10 of concentration in moles per litre.

CC(C)n1nc(-c2ccc3oc(N)nc3c2)c2c(N)ncnc21 :: 5.75

Alright, here's another compound for you.
Param readout = pKd; param system = ZmSIRK1 (ZmSIRK1^737-1045) (Zea mays, UniProt K7VIQ3); param query = Nc1ncnc2c1c(-c1cnc3[nH]ccc3c1)nn2C1CCCC1 ; response: value
5.70

Ref: paper PMC5445127
